- System: LasB (Pseudomonas aeruginosa, UniProt Q02RJ6)
- Sequence (Q02RJ6 198-498): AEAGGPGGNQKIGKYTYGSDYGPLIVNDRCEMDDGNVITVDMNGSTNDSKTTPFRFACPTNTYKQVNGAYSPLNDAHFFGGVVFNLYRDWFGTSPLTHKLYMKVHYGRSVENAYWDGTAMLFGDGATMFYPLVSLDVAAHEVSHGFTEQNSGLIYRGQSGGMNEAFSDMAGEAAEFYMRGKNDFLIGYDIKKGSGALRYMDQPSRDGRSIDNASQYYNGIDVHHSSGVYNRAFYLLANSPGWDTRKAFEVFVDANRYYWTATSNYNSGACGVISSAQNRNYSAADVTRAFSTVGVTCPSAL
- Assay protocol: biochemical
- Assay setup: LasB IC50, FRET-based assay
Assay readout: IC50 (µM)
Give bare numbers, in µM.

Lab note: each compound below needs its IC50 filled in.
1. COc1ccc(N2C(=O)CC(S)C2=O)cc1 (stereo not shown) [Compound 20]
2. Cc1ccc(Cl)cc1N1C(=O)CC(S)C1=O (stereo not shown) [Compound 16]
3. CC(=O)c1ccc(N2C(=O)CC(S)C2=O)cc1 (stereo not shown) [Compound 25]
4. Cc1ccc(N2C(=O)CC(S)C2=O)cc1C (stereo not shown) [Compound 9]
5. Cc1ccc(Cl)c(C)c1N1C(=O)CC(S)C1=O (stereo not shown) [Compound 17]
6. O=C1CC(S)C(=O)N1c1ccccc1 (stereo not shown) [Compound 7]

1. 112
2. 15
3. 64
4. 29.4
5. 30.5
6. 44.2

Lab note: each compound below needs its IC50 filled in.
1. O=C1CC(CS)C(=O)N1c1ccc(Cl)c(Cl)c1 (stereo not shown) [Compound 50]
2. O=C1CC(S)C(=O)N1c1ccc(OC(F)(F)F)c(Cl)c1 (stereo not shown) [Compound 23]
3. O=C1CC(S)C(=O)N1c1cccc(Cl)c1 (stereo not shown) [Compound 11]
4. O=C1CC(S)C(=O)N1c1ccc(Cl)c(Cl)c1 (stereo not shown) [Compound 13]

[5.4, 55.2, 8.1, 3.4]

Lab note: each compound below needs its IC50 filled in.
1. O=C1CC(CS)C(=O)N1c1ccc(F)c(F)c1 (stereo not shown) [Compound 51]
2. COc1cccc(N2C(=O)CC(S)C2=O)c1 (stereo not shown) [Compound 19]
3. COc1ccccc1N1C(=O)CC(S)C1=O (stereo not shown) [Compound 18]
4. O=C1CC(S)C(=O)N1c1cccc([N+](=O)[O-])c1 (stereo not shown) [Compound 24]
5. O=C1CC(S)C(=O)N1c1ccc(F)c(F)c1 (stereo not shown) [Compound 15]
6. O=C1CC(S)C(=O)N1c1c(Cl)cccc1Cl (stereo not shown) [Compound 14]
7. O=C1CC(S)C(=O)N1c1ccc(Cl)cc1 (stereo not shown) [Compound 12]

1. 10.1
2. 40.2
3. 28.9
4. 22.2
5. 3.5
6. 16
7. 16.5

Give the reported IC50 for COc1ccc(N2C(=O)CC(S)C2=O)cc1OC (stereo not shown) [Compound 22] (system: LasB (Pseudomonas aeruginosa, UniProt Q02RJ6)).
160

###

What follows is a record of IC50 for TACE (ADAM-17) (Homo sapiens, UniProt P78536).
One number for each entry, in µM.

O=C1CC(S)C(=O)N1c1ccc(Cl)c(Cl)c1 (centres unmarked)	5.2

Now consider the entry below.
For CC(=O)c1ccc(N2C(=O)CC(S)C2=O)cc1 (centres unmarked) , what is its reported IC50?
3.4

###

Please go through the items and note down their inhibition at 1 µM.
- System: peptidase domain of ColH (ColH-PD) (Hathewaya histolytica)
- Sequence (Q46085 331-721 limits assumed): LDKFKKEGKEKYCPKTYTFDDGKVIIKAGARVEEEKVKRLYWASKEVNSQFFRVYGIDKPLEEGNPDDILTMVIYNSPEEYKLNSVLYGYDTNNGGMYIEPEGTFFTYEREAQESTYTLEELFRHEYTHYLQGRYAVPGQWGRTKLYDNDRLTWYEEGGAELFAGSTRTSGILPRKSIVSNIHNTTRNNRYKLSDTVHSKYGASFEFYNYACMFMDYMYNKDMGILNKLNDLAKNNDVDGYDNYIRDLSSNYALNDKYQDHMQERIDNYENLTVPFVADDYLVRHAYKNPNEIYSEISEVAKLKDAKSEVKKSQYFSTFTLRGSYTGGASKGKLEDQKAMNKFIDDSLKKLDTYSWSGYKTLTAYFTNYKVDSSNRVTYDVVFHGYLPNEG
- Assay protocol: biochemical
- Parameters: species or system Clostridium histolyticum
- Assay setup: read-out: ColH-PD % inhibition @ 1 μM
Give bare numbers, in %.

Answered cases to consult:
O=C1CC(S)C(=O)N1c1ccccc1 (centres unmarked) [Compound 7]	8
O=C1CC(S)C(=O)N1c1cccc([N+](=O)[O-])c1 (centres unmarked) [Compound 24]	4
CC(=O)c1ccc(N2C(=O)CC(CS)C2=O)cc1 (centres unmarked) [Compound 52]	8

Lab note: each compound below needs its inhibition at 1 µM filled in.
1. CC(=O)c1ccc(N2C(=O)CC(S)C2=O)cc1 (centres unmarked) [Compound 25]
2. O=C1CC(S)C(=O)N1c1ccc(-c2ccccc2)cc1 (centres unmarked) [Compound 27]

95
5

Attribution: paper PMC7429951
